Test system: CEM cells HIV-1 protection, formazan growth assay
Assay: NCI AIDS Antiviral Assay
Settings: measured here: growth of uninfected CEM cells
What IC50 was measured for each of the following?

Ask | Could you tell me which IC50 is on file for `CCOC(=O)c1nc2c(C)nc(N(C)C)nc2n(C)c1=O` ?
Reply | > 200 µM

Ask | Same question, NCCNC(=O)CN(CC(=O)O)C1CCCCC1N(CC(=O)O)CC(=O)O (configuration not stated) this time
Reply | > 200 µM

Ask | Same question, `CCC(CC)n1cc(C(=O)NC(=O)NCCCCCOC(=O)CCCCCCCCCCC(=O)OCCCCCNC(=O)NC(=O)c2cn(C(CC)CC)c(=O)[nH]c2=O)c(=O)[nH]c1=O` this time
Reply | > 20.9 µM

Ask | Same question, `O=c1[nH]c2ccccc2c(O)c1-c1ccccc1` this time
Reply | > 200 µM

Ask | Same question, CCC1(c2ccccc2)C(=O)N=C(c2ccccc2)N1CCc1ccccc1 (configuration not stated) this time
Reply | > 200 µM

Ask | Same question, `CCCCC#COP(=O)(OCC)OCC` this time
Reply | > 251 µM

Ask | Same question, O=C1Nc2ccccc2C12CCNC2Cc1ccccc1 (configuration not stated) this time
Reply | 263 µM

Ask | Same question, `O=C1CCCC2=C1CC1=C(CCCC1=O)N2c1ccccc1` this time
Reply | > 100 µM

Ask | Same question, `O=C(O)CCN(CCC(=O)O)CCN(CCC(=O)O)CCC(=O)O` this time
Reply | > 589 µM

Ask | Same question, `C/C(=N/NC(=S)N1CCCCCC1)c1cccc(/C(C)=N\NC(=S)N2CCCCCC2)n1` this time
Reply | 3.63 µM

Ask | Same question, O=C1OC(OCC#CCOC2OC(=O)C(Cl)=C2Cl)C(Cl)=C1Cl (configuration not stated) this time
Reply | 1.7 µM

Ask | Same question, `COc1ccc(OC)c(C[P+](c2ccccc2)(c2ccccc2)c2ccccc2)c1` this time
Reply | 1.2 µM

Ask | Same question, `Cc1cccnc1NC(=O)NCCCl` this time
Reply | > 200 µM

Ask | Same question, `O=S(=O)(/C=C/c1ccc(F)cc1)Cc1ccc(CS(=O)(=O)/C=C/c2ccc(F)cc2)cc1` this time
Reply | > 27.5 µM

Ask | Same question, `CCc1nc2c(O)ccc(O)c2nc1C` this time
Reply | 10.5 µM

Ask | Same question, O=C1OC(=O)C2C1C=C(c1ccccc1)C1C3C=CC(C4C(=O)OC(=O)C34)C21 (configuration not stated) this time
Reply | > 200 µM

Ask | Same question, `CCCCCCCCCCCC(=O)OCCOCCOCCOCCOCCOCCOCCOCCOCCO` this time
Reply | 145 µM

Ask | Same question, CC(Sc1ccccc1)C(=O)N1CCCC1 (configuration not stated) this time
Reply | > 100 µM

Ask | Same question, CCOC1C(Br)Cn2c(=O)c3cc4ccccc4cc3c(=O)n2C1C (configuration not stated) this time
Reply | > 17.8 µM

Ask | Same question, c1ccc2c3c([nH]c2c1)C1C2CCCCN2C(c2ccncc2)N1CC3 (configuration not stated) this time
Reply | 42.7 µM

Ask | Same question, CCOC(=O)C1=C(C)C2C3C(=O)NC(=O)C3C1(C)C1C(=O)NC(=O)C21 (configuration not stated) this time
Reply | > 724 µM

Ask | Same question, `S=C1SC(=Nc2ccccc2)C(=Nc2ccccc2)N1c1ccccc1` this time
Reply | 91.2 µM
